Overview of recorded Ki for various compounds
# Test System: SmosOBP12 (Sitodiplosis mosellana, UniProt A0A346RTY7)
# Sequence (A0A346RTY7 entry or part of it): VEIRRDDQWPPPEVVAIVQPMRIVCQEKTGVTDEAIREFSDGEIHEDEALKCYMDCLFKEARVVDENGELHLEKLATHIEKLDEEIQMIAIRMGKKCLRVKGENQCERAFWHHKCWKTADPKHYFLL
# Assay Info: Fluorescence competitive binding assay with 1-NPN probe, recombinant SmosOBP12
# Assay Setup: calculated from IC50, Ki = [IC50]/(1 + [1-NPN]/K1-NPN); read-out: SmosOBP12 Ki
Enter your answer as a number in µM; do not include the unit.

What does the data say about its Ki? Entry: CCCCCCOC(=O)CC [Hexyl propionate]
5.9

What does the data say about its Ki? Entry: C=CC(O)CCCCC (stereo not drawn)
5.29

What does the data say about its Ki? Entry: CCCCCCOC(C)=O [Hexyl acetate]
10.4

What does the data say about its Ki? Entry: `CCCCCCCCCCCC=O`
8.06

What does the data say about its Ki? Entry: `CCCC(=O)CC`
6.26

What does the data say about its Ki? Entry: CCCCCCC(=O)OCC [Ethyl heptanoate]
7.29

Others:
What does the data say about its Ki? Entry: CCCCCOC(=O)CCCC [Pentyl pentanoate]
4.24

What does the data say about its Ki? Entry: CCCCCCCOC(C)=O [Heptyl acetate]
3.34

What does the data say about its Ki? Entry: CC1=CCC2C(C1)C2(C)C (stereo not drawn)
3.84

Cited source for all entries: paper PMC7767053
